Entries annotated with measured pEC50
# target_system: human parathyroid cell Ca2+ receptor (hPCaR) (Homo sapiens)
# experiment_summary: [Ca2+]i fluorescence assay in HEK 293 4.0-7 cells expressing hPCaR
# condition_info: buffer with 1 mM CaCl2
pEC50: −log10 of the molar value.

compound="C[C@@H]1CN(C(=O)CCCN(CCC(c2ccccc2)c2ccccc2)C(=O)Nc2nc(-c3ccccc3)cs2)CCN1 [Example 99]" observed="6.00 to 7.00"

Query: Give the measured pEC50 for O=C(NCCN(CCC(c1ccccc1)c1ccccc1)C(=O)Nc1nc2ccccc2s1)C1CCNCC1 [Example 166]
Response: > 7.00

Query: Give the measured pEC50 for CS(=O)(=O)c1ccc(-c2csc(NC(=O)N(CCCC(=O)O)CCC(c3ccccc3)c3ccccc3)n2)cc1 [Example 79]
Response: > 7.00

Query: Give the measured pEC50 for CS(=O)(=O)Nc1ccc(-c2nc(NC(=O)N(CCC(=O)O)CCC(c3ccccc3)c3ccccc3)sc2Cl)cc1 [Example 98]
Response: 6.00 to 7.00

Query: Give the measured pEC50 for CS(=O)(=O)Nc1ccc(-c2nc(NC(=O)N(CCN)CCC(c3ccccc3)c3ccccc3)sc2Cl)cc1 [Example 135]
Response: > 7.00

Query: Give the measured pEC50 for O=C(CCN(CCC(c1ccccc1)c1ccccc1)C(=O)Nc1nc2ccccc2s1)NCc1ccccc1 [Example 117]
Response: 6.00 to 7.00

* * *

# target_system: human parathyroid cell Ca2+ receptor (hPCaR) (Homo sapiens)
# Construct: expressed in transfected cells
# Sequence (P41180 20-1078): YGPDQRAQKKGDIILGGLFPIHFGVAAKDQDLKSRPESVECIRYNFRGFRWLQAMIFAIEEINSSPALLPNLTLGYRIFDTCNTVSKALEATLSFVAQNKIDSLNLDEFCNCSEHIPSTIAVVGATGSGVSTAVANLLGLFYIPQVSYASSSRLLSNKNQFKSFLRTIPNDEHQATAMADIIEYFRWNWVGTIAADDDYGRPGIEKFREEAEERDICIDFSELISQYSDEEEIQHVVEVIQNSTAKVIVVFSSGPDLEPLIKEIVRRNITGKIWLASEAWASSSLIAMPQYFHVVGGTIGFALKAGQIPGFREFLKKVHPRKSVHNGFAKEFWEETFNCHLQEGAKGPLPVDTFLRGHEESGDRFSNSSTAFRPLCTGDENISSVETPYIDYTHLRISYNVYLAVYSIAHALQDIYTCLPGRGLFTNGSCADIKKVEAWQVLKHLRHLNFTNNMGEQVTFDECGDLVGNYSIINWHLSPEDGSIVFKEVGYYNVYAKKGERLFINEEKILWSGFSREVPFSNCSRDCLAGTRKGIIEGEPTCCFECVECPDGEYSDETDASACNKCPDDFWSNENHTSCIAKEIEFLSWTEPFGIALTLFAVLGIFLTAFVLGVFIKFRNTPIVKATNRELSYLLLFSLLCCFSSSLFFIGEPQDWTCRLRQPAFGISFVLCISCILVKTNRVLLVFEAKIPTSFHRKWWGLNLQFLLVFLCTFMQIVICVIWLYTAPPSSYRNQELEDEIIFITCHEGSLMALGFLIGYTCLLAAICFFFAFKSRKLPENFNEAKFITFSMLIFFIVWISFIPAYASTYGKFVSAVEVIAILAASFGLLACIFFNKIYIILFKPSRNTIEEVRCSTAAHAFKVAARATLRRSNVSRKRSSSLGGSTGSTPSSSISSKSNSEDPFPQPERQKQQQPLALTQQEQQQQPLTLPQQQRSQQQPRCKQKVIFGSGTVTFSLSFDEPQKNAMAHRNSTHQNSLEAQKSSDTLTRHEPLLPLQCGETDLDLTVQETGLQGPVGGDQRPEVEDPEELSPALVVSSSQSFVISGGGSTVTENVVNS
# experiment_summary: [Ca2+]i fluorescence assay in HEK 293 4.0-7 cells expressing hPCaR
# Format: cell-based
# condition_info: buffer with 1 mM CaCl2
value_kind: EC50

Example entries begin here.
structure_smiles_string=O=C(O)CCN(CCC(c1ccccc1)c1ccccc1)C(=O)Nc1nc2ccccc2s1 target_system="human parathyroid cell Ca2+ receptor (hPCaR) (Homo sapiens)" observed="100 to 1000 nM"
structure_smiles_string=NC(=O)CCCN(CCC(c1ccccc1)c1ccccc1)C(=O)Nc1nc(-c2ccccc2)c(Cl)s1 target_system="human parathyroid cell Ca2+ receptor (hPCaR) (Homo sapiens)" observed="< 100 nM"
structure_smiles_string=O=C(CCCN(CCC(c1ccccc1)c1ccccc1)C(=O)Nc1nc2ccccc2s1)NC1CCNCC1 target_system="human parathyroid cell Ca2+ receptor (hPCaR) (Homo sapiens)" observed="< 100 nM"

Now for a further molecule.
Query: Give the measured EC50 for "CC(C)(C)OC(=O)N1CCC(NCCN(CCC(c2ccccc2)c2ccccc2)C(=O)Nc2nc3ccccc3s2)CC1"
Response: 100 to 1000 nM

* * *

# target_system: human parathyroid cell Ca2+ receptor (hPCaR) (Homo sapiens, UniProt P41180)
# Sequence (P41180 20-1078): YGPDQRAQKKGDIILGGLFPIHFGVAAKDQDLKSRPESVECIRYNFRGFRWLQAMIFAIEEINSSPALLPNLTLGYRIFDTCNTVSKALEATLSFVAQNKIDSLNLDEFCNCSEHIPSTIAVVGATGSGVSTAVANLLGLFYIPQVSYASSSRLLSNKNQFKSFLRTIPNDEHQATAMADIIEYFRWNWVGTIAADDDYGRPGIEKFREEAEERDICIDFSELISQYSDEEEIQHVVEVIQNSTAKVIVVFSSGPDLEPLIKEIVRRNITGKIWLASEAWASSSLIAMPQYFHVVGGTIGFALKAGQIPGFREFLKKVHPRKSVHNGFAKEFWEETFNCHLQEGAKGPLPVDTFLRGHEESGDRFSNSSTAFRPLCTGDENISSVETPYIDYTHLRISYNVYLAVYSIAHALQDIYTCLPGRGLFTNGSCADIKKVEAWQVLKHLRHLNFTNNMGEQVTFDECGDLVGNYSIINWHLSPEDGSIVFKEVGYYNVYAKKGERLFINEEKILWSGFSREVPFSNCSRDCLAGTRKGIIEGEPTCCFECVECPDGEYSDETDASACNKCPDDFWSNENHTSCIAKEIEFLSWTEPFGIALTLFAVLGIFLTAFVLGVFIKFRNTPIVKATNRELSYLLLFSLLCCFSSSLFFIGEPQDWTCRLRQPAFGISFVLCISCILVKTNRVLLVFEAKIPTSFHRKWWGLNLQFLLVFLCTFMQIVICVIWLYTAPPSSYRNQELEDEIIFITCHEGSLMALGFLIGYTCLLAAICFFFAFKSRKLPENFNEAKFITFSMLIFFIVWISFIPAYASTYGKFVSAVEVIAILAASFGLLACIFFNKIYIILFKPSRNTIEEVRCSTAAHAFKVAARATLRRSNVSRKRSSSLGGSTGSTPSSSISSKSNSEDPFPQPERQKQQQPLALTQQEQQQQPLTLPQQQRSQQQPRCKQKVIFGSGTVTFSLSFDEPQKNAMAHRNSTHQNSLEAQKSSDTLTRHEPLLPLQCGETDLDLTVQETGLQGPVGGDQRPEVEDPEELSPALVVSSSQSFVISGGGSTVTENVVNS
# experiment_summary: [Ca2+]i fluorescence assay in HEK 293 4.0-7 cells expressing hPCaR
# condition_info: buffer with 1 mM CaCl2
value_kind: EC50

Example entries begin here.
compound="O=C(Nc1nc2ccccc2s1)N(CCNC1CCNCC1)CCC(c1ccccc1)c1ccccc1 [Example 143]" value_kind=EC50 observed="< 100 nM"
compound="O=C(O)CCN(CCC(c1ccccc1)c1ccccc1)C(=O)Nc1nc(-c2ccccc2)c(Cl)s1 [Example 121]" value_kind=EC50 observed="1000 to 5000 nM"
compound="CS(=O)(=O)Nc1ccc(-c2nc(NC(=O)N(CCC(c3ccccc3)c3ccccc3)CCS(N)(=O)=O)sc2Cl)cc1 [Example 136]" value_kind=EC50 observed="< 100 nM"
compound="O=C(CCN(CCC(c1ccccc1)c1ccccc1)C(=O)Nc1nc2ccccc2s1)NC1CCCCC1 [Example 112]" value_kind=EC50 observed="100 to 1000 nM"
compound="O=C(CCCN(CCC(c1ccccc1)c1ccccc1)C(=O)Nc1nc(-c2ccccc2)cs1)N[C@H]1CCCNC1 [Example 78]" value_kind=EC50 observed="< 100 nM"

Query: Give the measured EC50 for CN(C)C(=O)N1CCN(C(=O)CCCN(CCC(c2ccccc2)c2ccccc2)C(=O)Nc2nc3ccccc3s2)CC1 [Example 87]
Response: < 100 nM

Query: Give the measured EC50 for N#Cc1ccc(S(=O)(=O)NCCN(CCC(c2ccccc2)c2ccccc2)C(=O)Nc2nc3ccccc3s2)cc1 [Example 169]
Response: 1000 to 5000 nM

Query: Give the measured EC50 for CS(=O)(=O)Nc1ccc(-c2nc(NC(=O)N(CCNC(=O)C3CCCNC3)CCC(c3ccccc3)c3ccccc3)sc2Cl)cc1 (stereo not drawn) [Example 131]
Response: < 100 nM

Query: Give the measured EC50 for O=C(CCCN(CCC(c1ccccc1)c1ccccc1)C(=O)Nc1nc2ccccc2s1)N1CCCCC1 [Example 105]
Response: 100 to 1000 nM

Every entry's value here was drawn from patent US20080125424A1.
